Reference source: the supplement of paper PMC3545927

Molecular target: furin, P09958;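 further: purified furin at 1:10 enzyme:substrate in 50 mM HEPES pH 7.5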
Sequence (P09958 whole entry): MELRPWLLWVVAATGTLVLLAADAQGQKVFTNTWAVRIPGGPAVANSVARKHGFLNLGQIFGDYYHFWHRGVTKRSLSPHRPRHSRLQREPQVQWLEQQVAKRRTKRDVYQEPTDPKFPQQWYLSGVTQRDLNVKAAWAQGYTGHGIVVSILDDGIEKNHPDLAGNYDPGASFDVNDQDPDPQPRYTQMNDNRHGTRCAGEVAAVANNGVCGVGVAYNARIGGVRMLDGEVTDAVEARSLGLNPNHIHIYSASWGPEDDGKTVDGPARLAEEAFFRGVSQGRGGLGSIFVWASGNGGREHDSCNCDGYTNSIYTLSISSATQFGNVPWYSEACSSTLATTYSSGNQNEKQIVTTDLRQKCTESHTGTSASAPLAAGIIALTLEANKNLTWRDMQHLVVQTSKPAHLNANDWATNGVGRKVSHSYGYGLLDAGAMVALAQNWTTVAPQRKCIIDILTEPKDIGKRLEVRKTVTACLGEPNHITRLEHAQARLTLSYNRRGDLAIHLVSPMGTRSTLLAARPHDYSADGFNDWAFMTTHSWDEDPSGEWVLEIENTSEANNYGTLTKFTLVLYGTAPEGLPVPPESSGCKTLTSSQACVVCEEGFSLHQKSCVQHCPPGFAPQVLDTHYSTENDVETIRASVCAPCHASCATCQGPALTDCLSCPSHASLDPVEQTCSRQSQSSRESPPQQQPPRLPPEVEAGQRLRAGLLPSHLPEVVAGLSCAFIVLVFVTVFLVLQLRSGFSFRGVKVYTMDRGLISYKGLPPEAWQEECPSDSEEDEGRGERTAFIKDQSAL
Assay: furin cleavage Z-score vs untreated control; higher = more cleavage, active = 3.5 or more, inactive = 1 or less, 8 variable residues between constant flanks
Conditions: 7.5 min
The other results are listed elsewhere or left out. The hit rate among all sequences tested is not known here.
Labels: Yes for active, No for inactive

CARQRKESETAGNASASA [FS-2172]	No
CACDVVCCSMAGNASASA [HC2120]	No
CARRRRELEPAGNASASA [FS-1867]	Yes
CAEVVTQTWVAGNASASA [HC159]	No
CALAARPRRRAGNASASA [FS-815]	Yes
CAREKRLLYSAGNASASA [FS-3218]	No
CARQARHYHQAGNASASA [FS-2582]	No
CAPISRPRRRAGNASASA [FS-1648]	Yes
CAWARRHKREAGNASASA [FS-1502]	Yes
CARQRRTVGQAGNASASA [FS-2367]	Yes
CAEERREKREAGNASASA [FS-905]	Yes
CASMGREIRSAGNASASA [FS-1082]	Yes
